The reader will find reported koff values listed item by item below.
- target: T1, recombinant human domain 1-3His6 of the cation-independent mannose-6-phosphate receptor (human, UniProt P11717 41-467)
- T1 construct: Biotinylated (NHS-PEG4-biotin) for BLI; Glycosylated; also called hDom1-3His6; hCI-M6PRD1-D3
- measurementDescription: BLI exp 2, dissoc pH 7

binder	koff [s⁻¹]
anti-CI-M6PR VHH2 (VHH, His6-tagged; made in Pichia pastoris) VHH: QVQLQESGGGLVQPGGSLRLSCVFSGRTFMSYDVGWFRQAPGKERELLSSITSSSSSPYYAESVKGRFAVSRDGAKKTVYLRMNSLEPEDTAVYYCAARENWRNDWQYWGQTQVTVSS	0.0136
anti-CI-M6PR VHH4 (VHH, His6-tagged; made in Pichia pastoris) VHH: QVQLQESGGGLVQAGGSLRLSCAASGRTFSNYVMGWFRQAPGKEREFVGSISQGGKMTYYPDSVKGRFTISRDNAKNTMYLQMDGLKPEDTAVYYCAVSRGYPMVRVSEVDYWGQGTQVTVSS	0.00101
anti-CI-M6PR VHH8 (VHH, His6-tagged (Pichia pastoris)) VHH: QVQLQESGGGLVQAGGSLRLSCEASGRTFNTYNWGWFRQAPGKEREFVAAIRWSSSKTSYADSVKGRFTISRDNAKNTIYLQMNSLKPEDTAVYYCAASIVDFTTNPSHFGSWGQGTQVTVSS	0.000976
anti-CI-M6PR VHH5 (VHH, His6-tagged; made in Pichia pastoris, later also in E. coli WK6) VHH: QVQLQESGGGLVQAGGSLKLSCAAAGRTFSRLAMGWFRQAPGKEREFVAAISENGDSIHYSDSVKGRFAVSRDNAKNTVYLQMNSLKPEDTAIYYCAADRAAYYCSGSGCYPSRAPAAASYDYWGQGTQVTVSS	0.00019

Reference for the values: patent US20250263490A1
